assay: Predicted plasma Cmax for 600 mg rodatristat ethyl BID (ELEVATE1/ELEVATE2); set-up: species or system human; conditions: 600 mg rodatristat ethyl BID, plasma; read-out: Predicted mean maximum plasma concentration (Cmax)
Cmax values, listed per item

>  <SMILES STR>
Nc1nc(O[C@H](c2ccc(Cl)cc2-c2ccccc2)C(F)(F)F)cc(N2CCC3(CC2)CN[C@H](C(=O)O)C3)n1

>  <Cmax / nM>
2010

$$$$
>  <SMILES STR>
CCOC(=O)[C@@H]1CC2(CCN(c3cc(O[C@H](c4ccc(Cl)cc4-c4ccccc4)C(F)(F)F)nc(N)n3)CC2)CN1

>  <Cmax / nM>
252

$$$$
